Reference for the values: the supplement of paper PMC5908809

Tested on: IMC-1 (IL-2 20 ng/mL)
ASSAY NOTES: percent inhibition of viability; higher = more inhibition
CONDITIONS USED: 72 h; 2500 nM

>  <MOLECULE>
CN1CCN(C2CCN(C(=O)Nc3cc(Oc4ccc(NC(=O)C5(C(=O)Nc6ccc(F)cc6)CC5)c(F)c4)ccn3)CC2)CC1 [Golvatinib] (max concentration tested 2500 nM)

>  <ASSAYED TARGET>
IMC-1 (IL-2 20 ng/mL)

>  <percent inhibition of viability / %>
3.69

$$$$
>  <MOLECULE>
O=C(c1cccc(Cl)c1F)N1CCN(Cc2cccc(Nc3nccs3)n2)CC1 [MK-8745] (max concentration tested 2500 nM)

>  <ASSAYED TARGET>
IMC-1 (IL-2 20 ng/mL)

>  <percent inhibition of viability / %>
66.8

$$$$
>  <MOLECULE>
NC(=O)Nc1sc(-c2ccc(F)cc2)cc1C(N)=O [TPCA-1] (max concentration tested 25000 nM)

>  <ASSAYED TARGET>
IMC-1 (IL-2 20 ng/mL)

>  <percent inhibition of viability / %>
3.86

$$$$
>  <MOLECULE>
COc1cc2nccc(Oc3ccc(NC(=O)NC4CC4)c(Cl)c3)c2cc1C(N)=O [Lenvatinib] (max concentration tested 2500 nM)

>  <ASSAYED TARGET>
IMC-1 (IL-2 20 ng/mL)

>  <percent inhibition of viability / %>
3.18

$$$$
>  <MOLECULE>
CCNC(=O)Nc1ccc(-c2nc3c(c(N4CCOC[C@@H]4C)n2)CCN(C2COC2)C3)cc1 [RG-7603] (max concentration tested 2500 nM)

>  <ASSAYED TARGET>
IMC-1 (IL-2 20 ng/mL)

>  <percent inhibition of viability / %>
-57.2

$$$$

###

Tested on: NK-YS (IL-2 2.5 ng/mL)
ASSAY NOTES: percent inhibition of viability; higher = more inhibition
CONDITIONS USED: 72 h; 10 nM
REPORTED PROPERTY: percent inhibition of viability (%)

>  <COMPOUND>
Nc1cccc2c1C(=O)N(C1CCC(=O)NC1=O)C2=O (stereo unspecified) [Pomalidomide] (max concentration tested 10000 nM)

>  <RESULT VALUE>
-2.34

$$$$
>  <COMPOUND>
COc1ccc(S(=O)(=O)Nc2cccnc2Nc2ccc(O)cc2)cc1 [ABT-751] (max concentration tested 10000 nM)

>  <RESULT VALUE>
0.15

$$$$
>  <COMPOUND>
Cc1c(NC(=O)OC[C@@H]2COCCN2)cn2ncnc(Nc3ccc4c(cnn4Cc4cccc(F)c4)c3)c12 (max concentration tested 10000 nM)

>  <RESULT VALUE>
0.48

$$$$
>  <COMPOUND>
CNCc1ccc(-c2[nH]c3cc(F)cc4c3c2CCNC4=O)cc1 [Rucaparib] (max concentration tested 10000 nM)

>  <RESULT VALUE>
-3.72

$$$$
>  <COMPOUND>
Nc1cccc2c1CN(C1CCC(=O)NC1=O)C2=O (stereo unspecified) [Lenalidomide] (max concentration tested 100000 nM)

>  <RESULT VALUE>
-1.44

$$$$
>  <COMPOUND>
CCN(c1cc(-c2ccc(CN3CCOCC3)cc2)cc(C(=O)NCc2c(C)cc(C)[nH]c2=O)c1C)C1CCOCC1 [E7438] (max concentration tested 10000 nM)

>  <RESULT VALUE>
-0.35

$$$$

###

Test system: DERL-7 (IL-2 2.5 ng/mL)
ASSAY NOTES: percent inhibition of viability; higher = more inhibition
CONDITIONS USED: 72 h; 1 nM
Reported percent inhibition of viability is given for each of the following compounds.
REPORTED PROPERTY: percent inhibition of viability

>  <COMPOUND>
O=c1ncn2nc(Sc3ccc(F)cc3F)ccc2c1-c1c(Cl)cccc1Cl [VX 745] (max concentration tested 10000 nM)

>  <REPORTED PROPERTY>
percent inhibition of viability

>  <RESULT VALUE>
0.51%

$$$$
>  <COMPOUND>
COc1cc2c(Oc3ccc(NC(=O)C4(C(=O)Nc5ccc(F)cc5)CC4)cc3F)ccnc2cc1OCCCN1CCOCC1 [Foretinib] (max concentration tested 1000 nM)

>  <REPORTED PROPERTY>
percent inhibition of viability

>  <RESULT VALUE>
-0.68%

$$$$
>  <COMPOUND>
CO[C@H]1C[C@@H]2CC[C@@H](C)[C@@](O)(O2)C(=O)C(=O)N2CCCC[C@H]2C(=O)O[C@H]([C@H](C)C[C@@H]2CC[C@@H](O)[C@H](OC)C2)CC(=O)[C@H](C)/C=C(\C)[C@@H](O)[C@@H](OC)C(=O)[C@H](C)C[C@H](C)/C=C/C=C/C=C/1C [Sirolimus] (max concentration tested 100 nM)

>  <REPORTED PROPERTY>
percent inhibition of viability

>  <RESULT VALUE>
7.44%

$$$$
>  <COMPOUND>
CO[C@@]12[C@H](COC(N)=O)C3=C(C(=O)C(C)=C(N)C3=O)N1C[C@@H]1N[C@@H]12 [Mitomycin C] (max concentration tested 10000 nM)

>  <REPORTED PROPERTY>
percent inhibition of viability

>  <RESULT VALUE>
-3.54%

$$$$
>  <COMPOUND>
CCC/C=C/C=C/C(=O)O[C@H]1/C(=C/C(=O)OC)C[C@H]2C[C@H]([C@@H](C)O)OC(=O)C[C@H](O)C[C@@H]3C[C@H](OC(C)=O)C(C)(C)[C@](O)(C[C@@H]4C/C(=C/C(=O)OC)C[C@H](/C=C/C(C)(C)[C@]1(O)O2)O4)O3 [Bryostatin 1] (max concentration tested 100 nM)

>  <REPORTED PROPERTY>
percent inhibition of viability

>  <RESULT VALUE>
24.4%

$$$$

###

Tested on: KAI3 (IL-2 2.5 ng/mL)
ASSAY NOTES: percent inhibition of viability; higher = more inhibition
CONDITIONS USED: 72 h; 0.1 nM
Reported percent inhibition of viability is given for each of the following compounds.
REPORTED PROPERTY: percent inhibition of viability

>  <COMPOUND>
C/C(=C\c1csc(C)n1)[C@@H]1C[C@@H]2O[C@]2(C)CCC[C@H](C)[C@H](O)[C@@H](C)C(=O)C(C)(C)[C@@H](O)CC(=O)N1 [Ixabepilone] (max concentration tested 1000 nM)

>  <RESULT VALUE>
-14.5%

$$$$
>  <COMPOUND>
Clc1ccccc1C(c1ccccc1)(c1ccccc1)n1cccn1 [TRAM-34] (max concentration tested 1000 nM)

>  <RESULT VALUE>
-2.69%

$$$$
>  <COMPOUND>
C[C@@H](Oc1ccc2[nH]nc(/C=C/c3cnn(CCO)c3)c2c1)c1c(Cl)cncc1Cl (max concentration tested 1000 nM)

>  <RESULT VALUE>
2.24%

$$$$

###

Reported drug sensitivity score is given for each of the following molecules.
Test system: SNK-6 (IL-2 2.5 ng/mL)
ASSAY NOTES: drug sensitivity score (DSS) (DSS units); higher = more sensitive; extreme values may be limits of the assay
CONDITIONS USED: 72 h

>  <MOLECULE>
CNCc1ccc(-c2[nH]c3cc(F)cc4c3c2CCNC4=O)cc1 [Rucaparib] (max concentration tested 10000 nM)

>  <drug sensitivity score>
1.5

$$$$
>  <MOLECULE>
CN[C@@H]1C[C@H]2O[C@@](C)([C@@H]1OC)n1c3ccccc3c3c4c(c5c6ccccc6n2c5c31)C(=O)N[C@H]4O [UCN-01] (max concentration tested 10000 nM)

>  <drug sensitivity score>
34

$$$$
>  <MOLECULE>
COc1ccc(-c2nc(N3CCOCC3)c3sc(CN(C)c4ncc(C(=O)NO)cn4)cc3n2)cn1 [CUDC-907] (max concentration tested 10000 nM)

>  <drug sensitivity score>
37.9

$$$$
>  <MOLECULE>
Cc1nc(Nc2ncc(C(=O)Nc3c(C)cccc3Cl)s2)cc(N2CCN(CCO)CC2)n1 [Dasatinib] (max concentration tested 1000 nM)

>  <drug sensitivity score>
2.07

$$$$
>  <MOLECULE>
CO[C@H]1C[C@@H]2CC[C@@H](C)[C@@](O)(O2)C(=O)C(=O)N2CCCC[C@H]2C(=O)O[C@H]([C@H](C)C[C@@H]2CC[C@@H](O)[C@H](OC)C2)CC(=O)[C@H](C)/C=C(\C)[C@@H](O)[C@@H](OC)C(=O)[C@H](C)C[C@H](C)/C=C/C=C/C=C/1C [Sirolimus] (max concentration tested 100 nM)

>  <drug sensitivity score>
13.6

$$$$

###

System: KHYG-1 (IL-2 2.5 ng/mL)
ASSAY NOTES: percent inhibition of viability; higher = more inhibition
CONDITIONS USED: 72 h; 1 nM

>  <COMPOUND>
Nc1ncnc2c1c(COc1cccc(Cl)c1)nn2C1CCOCC1 (max concentration tested 10000 nM)

>  <percent inhibition of viability / %>
3.82

$$$$
>  <COMPOUND>
COc1ccccc1S(=O)(=O)Nc1ccc2c(c1)CN(C)C(=O)N2 [PFI-1] (max concentration tested 10000 nM)

>  <percent inhibition of viability / %>
-2.18

$$$$
>  <COMPOUND>
CN1CCc2c(c3ccccc3n2Cc2ccc(C(=O)NO)cc2)C1 [Tubastatin A] (max concentration tested 10000 nM)

>  <percent inhibition of viability / %>
-2.63

$$$$
>  <COMPOUND>
CC(C)C[C@H](NC(=O)[C@H](CCc1ccccc1)NC(=O)CN1CCOCC1)C(=O)N[C@@H](Cc1ccccc1)C(=O)N[C@@H](CC(C)C)C(=O)[C@@]1(C)CO1 [Carfilzomib] (max concentration tested 1000 nM)

>  <percent inhibition of viability / %>
2.3

$$$$
>  <COMPOUND>
NC(=O)c1cccc2cn(-c3ccc([C@@H]4CCCNC4)cc3)nc12 [Niraparib] (max concentration tested 10000 nM)

>  <percent inhibition of viability / %>
-5.84

$$$$
>  <COMPOUND>
CC(C)N(CCCNC(=O)Nc1ccc(C(C)(C)C)cc1)C[C@H]1O[C@@H](n2cc(Br)c3c(N)ncnc32)[C@H](O)[C@@H]1O [SGC0946] (max concentration tested 10000 nM)

>  <percent inhibition of viability / %>
-5.1

$$$$
